Target: EGFR NPH (Homo sapiens, UniProt P00533, INS773NPH)
Sequence (P00533 with tags, fused parts or gaps INS773NPH): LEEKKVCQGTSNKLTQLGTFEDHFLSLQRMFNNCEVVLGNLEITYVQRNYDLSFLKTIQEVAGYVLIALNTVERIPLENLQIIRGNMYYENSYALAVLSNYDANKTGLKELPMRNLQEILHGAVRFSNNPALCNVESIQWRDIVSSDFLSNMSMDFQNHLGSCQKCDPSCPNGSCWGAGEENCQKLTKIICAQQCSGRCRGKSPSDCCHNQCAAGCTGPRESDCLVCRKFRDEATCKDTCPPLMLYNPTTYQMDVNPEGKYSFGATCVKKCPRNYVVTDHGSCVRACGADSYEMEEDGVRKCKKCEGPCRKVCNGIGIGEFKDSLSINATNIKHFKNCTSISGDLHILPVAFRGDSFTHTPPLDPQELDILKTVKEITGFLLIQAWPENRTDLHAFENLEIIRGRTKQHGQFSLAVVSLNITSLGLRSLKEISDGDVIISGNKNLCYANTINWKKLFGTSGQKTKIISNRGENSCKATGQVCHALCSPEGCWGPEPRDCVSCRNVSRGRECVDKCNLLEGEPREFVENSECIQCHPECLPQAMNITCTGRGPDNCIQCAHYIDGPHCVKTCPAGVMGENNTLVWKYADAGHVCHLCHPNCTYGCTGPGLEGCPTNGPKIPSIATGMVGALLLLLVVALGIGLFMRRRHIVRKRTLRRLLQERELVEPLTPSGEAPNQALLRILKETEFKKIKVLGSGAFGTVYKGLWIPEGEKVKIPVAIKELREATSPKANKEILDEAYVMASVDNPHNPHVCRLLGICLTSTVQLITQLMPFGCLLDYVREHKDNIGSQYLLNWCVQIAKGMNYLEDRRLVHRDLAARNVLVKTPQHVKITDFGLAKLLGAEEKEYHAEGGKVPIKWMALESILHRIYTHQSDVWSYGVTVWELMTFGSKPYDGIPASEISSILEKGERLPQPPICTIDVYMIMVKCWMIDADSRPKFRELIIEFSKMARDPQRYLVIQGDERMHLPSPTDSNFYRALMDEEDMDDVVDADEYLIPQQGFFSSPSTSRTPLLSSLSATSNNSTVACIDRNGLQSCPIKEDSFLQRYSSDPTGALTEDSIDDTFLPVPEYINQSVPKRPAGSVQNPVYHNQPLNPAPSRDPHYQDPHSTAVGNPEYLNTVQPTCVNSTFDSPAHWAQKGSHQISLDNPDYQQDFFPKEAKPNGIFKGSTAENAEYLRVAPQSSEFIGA
Assay: BaF3 cell proliferation assay (CellTiterGlo), EGFR NPH
Conditions: Table A; BaF3 cells, 3 days
pIC50: −log10 of the molar value.
reported_property: pIC50

Answered cases to consult:
compound | target | pIC50
C=CC(=O)Nc1cc2c(Nc3cccc(Cl)c3F)ncnc2cc1C#C[C@]1(C)CCN(C)C1 [Compound 3] | EGFR NPH (Homo sapiens, UniProt P00533, INS773NPH) | 7.00 to 7.30
C=CC(=O)Nc1cc2c(Nc3cccc(Cl)c3F)ncnc2cc1C#CC1(C)CCN(C)C1 (centres unmarked) [Compound 1] | EGFR NPH (Homo sapiens, UniProt P00533, INS773NPH) | 7.00 to 7.30
C=CC(=O)Nc1cc2c(Nc3ccc(OCc4ccccn4)c(Cl)c3)ncnc2cc1C#CC1(C)CCN(C)C1 (centres unmarked) [Compound 12] | EGFR NPH (Homo sapiens, UniProt P00533, INS773NPH) | ≥ 7.30
C=CC(=O)Nc1cc2c(Nc3cccc(Cl)c3F)ncnc2cc1C#C[C@@]1(C)CCN(C)C1 [Compound 2] | EGFR NPH (Homo sapiens, UniProt P00533, INS773NPH) | 7.00 to 7.30

Would you kindly look at the next entry?
Query: pIC50; subject: C=CC(=O)Nc1cc2c(Nc3ccc(Oc4ccccc4)cc3)ncnc2cc1C#C[C@]12C[C@H]1CN(C)C2 [Compound 41] 6.30 to 7.00

---

Catalogue of pIC50 readings, one per entry.
Biological target: HER2 YVMA (Homo sapiens, UniProt P04626, INS775YVMA)
Sequence (P04626 with tags, fused parts or gaps INS775YVMA): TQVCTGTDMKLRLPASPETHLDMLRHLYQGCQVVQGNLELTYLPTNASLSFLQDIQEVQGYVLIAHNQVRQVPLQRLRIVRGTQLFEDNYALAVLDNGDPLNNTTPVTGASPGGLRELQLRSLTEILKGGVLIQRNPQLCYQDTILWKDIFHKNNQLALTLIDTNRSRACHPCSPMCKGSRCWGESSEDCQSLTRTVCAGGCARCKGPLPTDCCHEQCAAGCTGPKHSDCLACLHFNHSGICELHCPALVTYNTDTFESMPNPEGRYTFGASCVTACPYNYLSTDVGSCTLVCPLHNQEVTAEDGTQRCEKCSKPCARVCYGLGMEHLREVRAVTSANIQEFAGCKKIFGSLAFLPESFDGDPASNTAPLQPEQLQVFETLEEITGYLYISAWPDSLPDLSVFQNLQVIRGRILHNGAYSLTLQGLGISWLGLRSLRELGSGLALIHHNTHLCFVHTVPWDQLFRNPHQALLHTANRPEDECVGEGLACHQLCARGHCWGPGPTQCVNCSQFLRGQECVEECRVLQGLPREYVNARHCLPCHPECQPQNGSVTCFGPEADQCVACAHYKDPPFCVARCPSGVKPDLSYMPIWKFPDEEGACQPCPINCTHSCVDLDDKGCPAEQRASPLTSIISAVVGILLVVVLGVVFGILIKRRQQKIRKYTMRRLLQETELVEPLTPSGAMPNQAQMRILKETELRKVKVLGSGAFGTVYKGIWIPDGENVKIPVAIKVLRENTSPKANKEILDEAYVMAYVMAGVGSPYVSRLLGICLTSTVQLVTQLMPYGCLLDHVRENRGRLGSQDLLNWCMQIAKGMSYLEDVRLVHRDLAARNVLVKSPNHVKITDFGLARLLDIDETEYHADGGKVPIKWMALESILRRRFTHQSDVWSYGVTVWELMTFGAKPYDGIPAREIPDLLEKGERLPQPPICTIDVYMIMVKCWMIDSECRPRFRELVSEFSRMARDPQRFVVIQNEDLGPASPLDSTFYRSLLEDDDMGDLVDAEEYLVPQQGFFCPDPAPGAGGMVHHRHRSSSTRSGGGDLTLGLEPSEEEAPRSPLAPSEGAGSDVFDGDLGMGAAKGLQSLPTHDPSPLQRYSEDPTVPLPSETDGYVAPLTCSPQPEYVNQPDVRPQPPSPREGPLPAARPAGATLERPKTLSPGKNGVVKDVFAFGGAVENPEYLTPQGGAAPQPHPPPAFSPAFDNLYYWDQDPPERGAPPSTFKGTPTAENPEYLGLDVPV
Experiment: BaF3 cell proliferation assay (CellTiterGlo), HER2 YVMA
Conditions: Table A; BaF3 cells, 3 days
pIC50: −log10 of the molar value.

Sample answers from the record:
compound | value
C=C(CO)C(=O)Nc1cc2c(Nc3cccc(Cl)c3F)ncnc2cc1C#C[C@@]12C[C@@H]1CN(C)C2 | 6.30 to 7.00
C=CC(=O)Nc1cc2c(Nc3cccc(Cl)c3F)ncnc2cc1C#CC1(C)COC1 | 7.00 to 7.30
C=CC(=O)Nc1cc2c(Nc3ccc(OCc4ccccn4)c(Cl)c3)ncnc2cc1C#CC12CCC(CC1)N2C | 6.30 to 7.00
C=CC(=O)Nc1cc2c(Nc3ccc(Oc4ccccc4)cc3)ncnc2cc1C#C[C@]12C[C@H]1CN(C)C2 | ≥ 7.30
COC(=O)Nc1cc2c(Nc3cccc(Cl)c3F)ncnc2cc1C#CC1(C)CCN(C)C1 (centres unmarked) | < 6.30
CN1C[C@H]2C[C@@]2(C#Cc2cc3ncnc(Nc4cccc(Cl)c4F)c3cc2NC(=O)/C=C/CN2CCCC(C(=O)O)C2)C1 (some centres unmarked) | < 6.30
C=CC(=O)Nc1cc2c(Nc3ccc(Cl)c(Cl)c3F)ncnc2cc1C#CC1(C)CCN(C)C1 (centres unmarked) | 6.30 to 7.00
C=CC(=O)Nc1cc2c(Nc3cccc(Cl)c3F)ncnc2cc1C#CC1(C)CCN(CCF)C1 (centres unmarked) | < 6.30
COC/C=C/C(=O)Nc1cc2c(Nc3cccc(Cl)c3F)ncnc2cc1C#C[C@@]12C[C@@H]1CN(C)C2 | < 6.30
C=CC(=O)Nc1cc2c(Nc3cccc(Cl)c3F)ncnc2cc1C#C[C@]1(C)CCN(C)C1 | 6.30 to 7.00

Give the measured pIC50 of C=CC(=O)Nc1cc2c(Nc3cccc(Cl)c3F)ncnc2cc1C#CC12CC1CN(C)C2 (centres unmarked) . 6.30 to 7.00

Given C=CC(=O)Nc1cc2c(Nc3cccc(Cl)c3F)ncnc2cc1C#CC12CC1CN(C1COC1)C2 (centres unmarked) , state its recorded pIC50. 6.30 to 7.00

# lookup: pIC50 of C=CC(=O)Nc1cc2c(Nc3cccc(Cl)c3F)ncnc2cc1C#C[C@@]12C[C@@H]1CN(C1COC1)C2 6.30 to 7.00

What does the data say about its pIC50? Entry: CC#CC(=O)Nc1cc2c(Nc3cccc(Cl)c3F)ncnc2cc1C#C[C@@]12C[C@@H]1CN(C)C2 6.30 to 7.00

Quick one: pIC50 of C=CC(=O)Nc1cc2c(Nc3ccc(OCc4ccccn4)c(Cl)c3)ncnc2cc1C#C[C@@]1(C)CCCN1C ? 6.30 to 7.00
